tested on: Erysiphe graminis; assay: Powdery mildew of barley, systemic root uptake (BMS); format: in vivo; details: 45 ml of 250 mg/l, 8 days after inoculation
# maps each entry to its Percent Reduction of Disease, BMS

# Molecule, Percent Reduction of Disease, BMS, %
data = [
    ("C=CCC(C#N)(CCc1ccc(OCC)cc1)c1cccnc1 (stereo not drawn) [Compound 40]", 0),
    ("C=CCC(C#N)(Cc1ccc(C(C)(C)C)cc1)c1cccnc1 (stereo not drawn) [Compound 18]", 20),
    ("COCC(C#N)(CCc1ccccc1)c1cccnc1 (stereo not drawn) [Compound 6]", 100),
    ("C=CCC(C#N)(CCc1ccccc1)c1cccnc1 (stereo not drawn) [Compound 5]", 85),
    ("C#CCC(C#N)(CCc1ccccc1)c1cccnc1 (stereo not drawn) [Compound 4]", 35),
    ("CCCC(C#N)(CCc1ccccc1C(F)(F)F)c1cccnc1 (stereo not drawn) [Compound 72]", 90),
    ("CCCC(C#N)(CCc1ccccc1)c1cccnc1 (stereo not drawn) [Compound 1]", 60),
    ("CCCCCCC(C#N)(CCc1ccc(OC)cc1)c1cccnc1 (stereo not drawn) [Compound 36]", 0),
    ("N#CC(CCCc1ccc(Cl)cc1)(CC1CC1)c1ccccn1 (stereo not drawn) [Compound 32]", 0),
    ("CCCCC(C#N)(CCc1ccc(OCCF)cc1)c1cccnc1 (stereo not drawn) [Compound 68]", 0),
    ("CC(C)CC(C#N)(CCc1ccccc1)c1cccnc1 (stereo not drawn) [Compound 7]", 35),
    ("CCCC(C#N)(Cc1ccc(Oc2ccccc2)cc1)c1cccnc1 (stereo not drawn) [Compound 17]", 0),
]
